For each record, write down the corresponding self-aminoacylation.
Test system: biotinyl-Phe-oxazolone
Assay: self-aminoacylation, catalytic enhancement (BFO) (fold over background); higher = more active; k-Seq, kA / k0A0; sequences stand for … in GGGAAUGGAUCCACAUCUACGAAUUC…UUCACUGCAGACUUGACGAAGCUG
Variants at the floor of the assay were thinned out.

Previously resolved entries follow.
AUACACCUUGGUCAUCGGGUG [Fam2.2 aminoacylation ribozyme variant]	19.9
AUUACCCUGGUCAUCCAUUGA [Fam2.1 aminoacylation ribozyme variant]	1.15
AUUACCCUGGUCAUCGAGUUA [Fam2.1 aminoacylation ribozyme variant]	26.4
AUUACCCUGGUCCUCGCGUGA [Fam2.1 aminoacylation ribozyme variant]	87.3

Dear reader, for each entry below, please note its self-aminoacylation.
1. CUACUCAAAACAAUCGGUCUG [Fam1A.1 aminoacylation ribozyme variant]
2. AUUCACCUAGGUAAACGGGUG [Fam2.2 aminoacylation ribozyme variant]
3. CUACUUGAAAGAAUCGGUCUG [Fam1A.1 aminoacylation ribozyme variant]
4. AAGUUUACUACUAGUCGCAAG [Fam3.1 aminoacylation ribozyme variant]
5. CCACACUUCUAGCCAUCGGUC [Fam1B.1 aminoacylation ribozyme variant]
6. AUUAACCUAGGUCAACGGGUG [Fam2.2 aminoacylation ribozyme variant]
7. AAGUUUGCUAUCAGUCGCAAG [Fam3.1 aminoacylation ribozyme variant]

1: 1.27; 2: 22.9; 3: 0.599; 4: 2.04; 5: 1.09; 6: 20.5; 7: 1.37

* * *

Tested on: biotinyl-Leu-oxazolone
Assay: self-aminoacylation, catalytic enhancement (BLO) (fold over background); higher = more active; k-Seq, kA / k0A0; sequences stand for … in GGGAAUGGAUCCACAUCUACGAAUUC…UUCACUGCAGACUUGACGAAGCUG
Fewer inactive variants are shown than the library holds.
For each record, write down the corresponding self-aminoacylation.
One number for each entry.

CCACACUUCACGCGAUCGGUC [Fam1B.1 aminoacylation ribozyme variant]	1.84
AUUACCCUGGACAUCGAGUUA [Fam2.1 aminoacylation ribozyme variant]	0.772
CCACAAUUCAGGCAAUCGGUC [Fam1B.1 aminoacylation ribozyme variant]	1.46
AUUCACCUGAGUCAUCGGGUG [Fam2.2 aminoacylation ribozyme variant]	15
CCACACUUCAAUCAAUUGGUC [Fam1B.1 aminoacylation ribozyme variant]	0.545

Dear reader, for each entry below, please note its self-aminoacylation.
1. CCACUCUUCAAGCAAUCGGUG [Fam1B.1 aminoacylation ribozyme variant]
2. ACUACCCUGGUCAUCGAGUAA [Fam2.1 aminoacylation ribozyme variant]
3. AUUCACCUAGGUCAUCCGGCG [Fam2.2 aminoacylation ribozyme variant]
4. CUACUUCAAACAAUCGGCCUA [Fam1A.1 aminoacylation ribozyme variant]
5. ACCACCCUGGUCAUCGAGUGA [Fam2.1 aminoacylation ribozyme variant]
6. ACUACCCUGCUCAUCGAGUGA [Fam2.1 aminoacylation ribozyme variant]

7.12
8.99
3.69
1.25
9.22
2.44

* * *

For each record, write down the corresponding self-aminoacylation.
Tested on: biotinyl-Phe-oxazolone
Test: self-aminoacylation, catalytic enhancement (BFO) (fold over background); higher = more active; k-Seq, kA / k0A0; sequences stand for … in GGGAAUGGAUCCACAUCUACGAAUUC…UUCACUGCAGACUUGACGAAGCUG
This sample holds only a part of the variants without activity.
One number for each entry.

AUUCACCUAGUUCAUCAGGUG [Fam2.2 aminoacylation ribozyme variant]	0.467
AUUCAUCUGGGUCAUCGGGUG [Fam2.2 aminoacylation ribozyme variant]	53.2
AUUACCCUGGACAUCGUGUGA [Fam2.1 aminoacylation ribozyme variant]	10.9
CUACUUCAAAGUAUCGGUCUG [Fam1A.1 aminoacylation ribozyme variant]	1.44

Query sequence follows.
Would you mind telling me what self-aminoacylation value was observed for CCAGACUUCAAGCAAUCGUUC [Fam1B.1 aminoacylation ribozyme variant] ? 1.08

* * *

Tested on: biotinyl-Phe-oxazolone
Assay: self-aminoacylation, catalytic enhancement (BFO) (fold over background); higher = more active; k-Seq, kA / k0A0; sequences stand for … in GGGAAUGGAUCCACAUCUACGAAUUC…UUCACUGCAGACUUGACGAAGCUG
This sample holds only a part of the variants without activity.
For each record, write down the corresponding self-aminoacylation.
Give bare numbers.

AUUACCCUGGUCAAAGAGUGA [Fam2.1 aminoacylation ribozyme variant]	45.6
AAGUUUGCUAAUAGUCUUAAG [Fam3.1 aminoacylation ribozyme variant]	25.7
AUUCAACUAAGUCAUCGGGUG [Fam2.2 aminoacylation ribozyme variant]	69.4

Dear reader, for each entry below, please note its self-aminoacylation.
1. AAGUUUGCUUAUACUCGCAAG [Fam3.1 aminoacylation ribozyme variant]
2. AUUCCCCUGGUCAUCGAGAGA [Fam2.1 aminoacylation ribozyme variant]
3. AUUCACCUAUGUCACCGGGUG [Fam2.2 aminoacylation ribozyme variant]
4. AAGUUUGCAAAUAGUCGCAUG [Fam3.1 aminoacylation ribozyme variant]
5. AAGUUAGCUAACAGUCGCAAG [Fam3.1 aminoacylation ribozyme variant]
6. AUUACCCUGGUCAUCGUGGGA [Fam2.1 aminoacylation ribozyme variant]
7. CCACACUUCAACCAAUCGUUC [Fam1B.1 aminoacylation ribozyme variant]
8. AAUCACCUAGGUCAUCGAGUG [Fam2.2 aminoacylation ribozyme variant]

0.761
3.27
19
0.739
2.2
4.91
1.28
7.56

* * *

Tested on: biotinyl-Ile-oxazolone
Assay: self-aminoacylation, catalytic enhancement (BIO) (fold over background); higher = more active; k-Seq, kA / k0A0; sequences stand for … in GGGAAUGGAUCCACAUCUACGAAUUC…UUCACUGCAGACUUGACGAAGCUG
Fewer inactive variants are shown than the library holds.
Short version: self-aminoacylation at least 2 is Fulfilled, less is Not fulfilled.

Consider the worked cases shown below.
AUUACCCUGGUCAUCAAGUGA [Fam2.1 aminoacylation ribozyme variant]	Not fulfilled
AUUCACAUAGGUCAUCAGGUG [Fam2.2 aminoacylation ribozyme variant]	Not fulfilled
AUUACCCGGGUCUUCGAGUGA [Fam2.1 aminoacylation ribozyme variant]	Fulfilled

Confirm if self-aminoacylation reported for the sequence CAACUUCUAACAAUCGGUCUG [Fam1A.1 aminoacylation ribozyme variant] is 2 or above. Not fulfilled

# repeat for CCACACUUAAACCAAUCGGUC [Fam1B.1 aminoacylation ribozyme variant] Not fulfilled

# repeat for CCACACGUGAAGCAAUCGGUC [Fam1B.1 aminoacylation ribozyme variant] Not fulfilled

# repeat for AUUCGCCUAGGUCAUCUGGUG [Fam2.2 aminoacylation ribozyme variant] Fulfilled

* * *

Tested on: biotinyl-Met-oxazolone
Assay: self-aminoacylation, catalytic enhancement (BMO) (fold over background); higher = more active; k-Seq, kA / k0A0; sequences stand for … in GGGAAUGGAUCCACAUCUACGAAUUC…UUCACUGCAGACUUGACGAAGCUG
This sample holds only a part of the variants without activity.
Short version: self-aminoacylation at least 1 is condition met, less is condition not met.

Confirm if self-aminoacylation reported for the sequence CUACUUCAGACGAUCGGUCUG [Fam1A.1 aminoacylation ribozyme variant] is 1 or above. condition met

# repeat for AUUUCCCUGUUCAUCGAGUGA [Fam2.1 aminoacylation ribozyme variant] condition met

# repeat for AAGUUUGCUAAUAGUCCCACG [Fam3.1 aminoacylation ribozyme variant] condition not met

# repeat for CGACUUCAAACAUUCGGUCUG [Fam1A.1 aminoacylation ribozyme variant] condition met

# repeat for AUUCCCCUAGGUCAUCGGGUU [Fam2.2 aminoacylation ribozyme variant] condition met

* * *

Tested on: biotinyl-Trp-oxazolone
Assay: self-aminoacylation, catalytic enhancement (BWO) (fold over background); higher = more active; k-Seq, kA / k0A0; sequences stand for … in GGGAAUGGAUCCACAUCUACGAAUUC…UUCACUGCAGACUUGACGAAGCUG
Fewer inactive variants are shown than the library holds.
For each record, write down the corresponding self-aminoacylation.
Answers are plain numbers.

Previously resolved entries follow.
CCACACUUCAAGGAAUCGGUU [Fam1B.1 aminoacylation ribozyme variant]	1.16
AUUGCCCUGGUCAUCGAGGGA [Fam2.1 aminoacylation ribozyme variant]	3.16
CUACUUCGGACAAUCGGUCUG [Fam1A.1 aminoacylation ribozyme variant]	0.75

Dear reader, for each entry below, please note its self-aminoacylation.
1. AUUACCCUGGUAAACGAGUGA [Fam2.1 aminoacylation ribozyme variant]
2. UAGUUUGCCAAUAGUCGCAAG [Fam3.1 aminoacylation ribozyme variant]
3. CCACACUUCAAGCAAUCGGUC [Fam1B.1 aminoacylation ribozyme variant]
4. UUUCACCUAGGUCCUCGGGUG [Fam2.2 aminoacylation ribozyme variant]

[20.1, 1.99, 23.9, 5.68]

Dear reader, for each entry below, please note its self-aminoacylation.
1. AUUUACGUAGGUCAUCGGGUG [Fam2.2 aminoacylation ribozyme variant]
2. AGUACCCUGGUCCUCGAGUGA [Fam2.1 aminoacylation ribozyme variant]
3. AUUCACCUAGGACAUCGCGUG [Fam2.2 aminoacylation ribozyme variant]
4. AUUCACCUCGGUCAUCGGGUA [Fam2.2 aminoacylation ribozyme variant]
5. CCACACUUCAAGCAAUAGGUG [Fam1B.1 aminoacylation ribozyme variant]

1. 3.64
2. 4.66
3. 3.99
4. 3.95
5. 2.55
